# maps each entry to its LD50 at 336 h
# assayProtocol: Acute Toxicity
# studyConditions: mouse, in vivo, iv; ddY mice, single i.v. injection, 14 days observation, Behrens Kaerber's method
resultType: LD50 at 336 h

COC1=CC(=O)C2=C(C1=O)[C@@H](COC(N)=O)[C@@]1(OC)[C@@H]3[C@H](CN21)N3C (stereo partly shown)    26 mg/kg
COC1=CC(=O)C2=C(C1=O)[C@H](COC(N)=O)[C@@]1(O)[C@@H]3[C@H](CN21)N3C (stereo partly shown)    > 20 mg/kg
CN1[C@H]2[C@@H]1CN1C3=C(C(=O)C(N)=CC3=O)[C@H](COC(N)=O)[C@@]21O (stereo partly shown)    > 100 mg/kg
CO[C@@]12[C@H](COC(N)=O)C3=C(C(=O)C=C(N)C3=O)N1C[C@H]1[C@@H]2N1C (stereo partly shown)    18 mg/kg
CO[C@@]12[C@H](COC(N)=O)C3=C(C(=O)C(Br)=C(N)C3=O)N1C[C@@H]1N[C@@H]12    3.2 mg/kg
CO[C@@]12[C@H](COC(N)=O)C3=C(C(=O)C=C(N)C3=O)N1C[C@@H]1N[C@@H]12    9.7 mg/kg
COC1=CC(=O)C2=C(C1=O)[C@@H](COC(N)=O)[C@@]1(OC)[C@H]3N[C@H]3CN21    2.8 mg/kg

###

# Test system: Sarcoma 180 solid tumor
# assayProtocol: Anti-tumor Activity to Sarcoma 180 Solid Tumor
# Format: in vivo
# studyConditions: Mus musculus, iv, 168 h; male ddY mice, s.c. Sarcoma 180, single i.v. injection 24 hours after implantation, tumor volume at 7 days; read-out: ED50 (dose showing T/C=0.5)
Each entry below carries its reported ED50.
resultType: ED50 (mg/kg)

CO[C@@]12[C@H](COC(N)=O)C3=C(C(=O)C(Br)=C(N)C3=O)N1C[C@@H]1N[C@@H]12 [Compound 8, 6-bromo-6-demethylmitomycin C]    1.6
COC1=CC(=O)C2=C(C1=O)[C@@H](COC(N)=O)[C@@]1(OC)[C@@H]3[C@H](CN21)N3C (stereo partly shown) [Compound 5, 6-demethylmitomycin F]    7.1
CO[C@@]12[C@H](COC(N)=O)C3=C(C(=O)C=C(N)C3=O)N1C[C@H]1[C@@H]2N1C (stereo partly shown) [Compound 6, 6-demethylporfiromycin]    8.4
CO[C@@]12[C@H](COC(N)=O)C3=C(C(=O)C=C(N)C3=O)N1C[C@@H]1N[C@@H]12 [Compound 3, 6-demethylmitomycin C]    2.6
CN1[C@H]2[C@@H]1CN1C3=C(C(=O)C(N)=CC3=O)[C@H](COC(N)=O)[C@@]21O (stereo partly shown) [Compound 4, 6-demethylmitomycin D]    33
COC1=CC(=O)C2=C(C1=O)[C@@H](COC(N)=O)[C@@]1(OC)[C@H]3N[C@H]3CN21 [Compound 1, 6-demethylmitomycin A]    1.6
COC1=CC(=O)C2=C(C1=O)[C@H](COC(N)=O)[C@@]1(O)[C@@H]3[C@H](CN21)N3C (stereo partly shown) [Compound 2, 6-demethylmitomycin B]    11
